B1: HDV Ribozyme (parent)
chain: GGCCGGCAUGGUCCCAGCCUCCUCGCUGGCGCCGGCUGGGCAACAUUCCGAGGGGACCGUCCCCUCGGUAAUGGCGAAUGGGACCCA

- Variants of: B1
- ASSAY EXPLANATION: self-cleavage, relative activity (ratio to wild type); higher = more cleavage; co-transcriptional
Binning of self-cleavage into classes: lower band: < 0.2; central band: ≥ 0.2 and < 0.5; upper band: ≥ 0.5

Previously resolved entries follow.
G38U A83U	lower band
G54U G81A	central band
G6U C22U	lower band
C64A G68U	central band
G10A U23G	lower band
C58U G81C	central band
G54U G67U	upper band
G29U C75G	lower band

Which self-cleavage band matches A43U A87G ? central band

Which self-cleavage band matches G5C A83C ? lower band

Which self-cleavage band matches C3A C64U ? upper band

Which self-cleavage band matches C7G C21G ? lower band

Which self-cleavage band matches A56U U79G ? upper band

Which self-cleavage band matches G40C G50C ? central band

Which self-cleavage band matches G35C A78U ? lower band

Which self-cleavage band matches A51U U65C ? upper band
